Sourced from patent US9518061B2

This section presents compounds with their documented herbicidal efficacy (growth inhibition rate level) Monochoria vaginalis values.
- System: Monochoria vaginalis
- Test Method Notes: Paddy herbicidal activity test
- Assay type: in vivo
- Assay Context: 5g a.i./10a; irrigated paddy pot; 30 days

compound="COCCCN(C(=O)C(F)(F)F)c1c(C#N)cnn1-c1nn2c(c1Cl)CCCC2 [Compound 6]" recorded_result="9 (90% to less than 100%)"
compound="N#Cc1cnn(-c2nn3c(c2Cl)CCCC3)c1N(CCC(F)(F)F)C(=O)C(F)(F)F [Compound 4]" recorded_result="8 (80% to less than 90%)"

Now let's try a different one.
Incoming: Which herbicidal efficacy (growth inhibition rate level) Monochoria vaginalis is reported with Monochoria vaginalis for this entry: N#Cc1cnn(-c2nn3c(c2Br)CCCC3)c1N(CCCl)C(=O)C(F)(F)F [Compound 16] ?
Outgoing: 8 (80% to less than 90%)

###

- Tested on: Rice plants
- Test Method Notes: Paddy herbicidal activity test, phytotoxicity to transplanted rice
- Format: in vivo
- Assay Context: 1g a.i./10a; rice transplanted in 2.0 leaf stage; 30 days
The molecules listed here are annotated with their phytotoxicity (growth inhibition rate level) Rice plants.

Use these answered entries as a reference point.
molecule="CCN(C(=O)C(F)(F)F)c1c(C#N)cnn1-c1nn2c(c1Cl)CCCC2 [Control agent 4.238]" recorded_result="2 (20% to less than 30%)"
molecule="CN(C(=O)C(F)(F)F)c1c(C#N)cnn1-c1nn2c(c1Cl)CCCC2 [Control agent 4.237]" recorded_result="1 (10% to less than 20%)"

Incoming: # query: phytotoxicity (growth inhibition rate level) Rice plants of entry COCCN(C(=O)C(F)(F)F)c1c([N+](=O)[O-])cnn1-c1nn2c(c1Cl)CCCC2
Outgoing: 1 (10% to less than 20%)

###

- Tested on: Monochoria vaginalis
- Test Method Notes: Paddy herbicidal activity test
- Type: in vivo
- Assay Context: 5g a.i./10a; irrigated paddy pot; 30 days
Reported Property: herbicidal efficacy (growth inhibition rate level) Monochoria vaginalis

Some compounds with recorded herbicidal efficacy (growth inhibition rate level) Monochoria vaginalis:
compound="CN(C(=O)C(F)(F)F)c1c(C#N)cnn1-c1nn2c(c1Cl)CCCC2 [Control agent 4.237]" system="Monochoria vaginalis" recorded_result="3 (30% to less than 40%)"
compound="COCCNc1c(C#N)cnn1-c1nn2c(c1Cl)CCCC2 [Control agent 4.63]" system="Monochoria vaginalis" recorded_result="2 (20% to less than 30%)"
compound=COCCCN(C(=O)C(F)(F)F)c1c(C#N)cnn1-c1nn2c(c1Br)CCCC2 system="Monochoria vaginalis" recorded_result="8 (80% to less than 90%)"

// next entry
Incoming: Form field: reported herbicidal efficacy (growth inhibition rate level) Monochoria vaginalis of COCCN(C(=O)C(F)(F)F)c1c([N+](=O)[O-])cnn1-c1nn2c(c1Cl)CCCC2
Outgoing: 9 (90% to less than 100%)

###

Measured herbicidal efficacy (growth inhibition rate level) Digitaria ciliaris, listed per entry.
- Test system: Digitaria ciliaris
- Test Method Notes: Farming soil treatment test
- Type: in vivo
- Assay Context: 5g a.i./10a; soil surface spray prior to weed growth; 30 days

molecule="N#Cc1cnn(-c2nn3c(c2Cl)CCCC3)c1N(CCCl)C(=O)C(F)(F)F [Compound 1]" system="Digitaria ciliaris" recorded_result="10 (100%)"
molecule="COCCN(C(=O)C(F)(F)F)c1c(C#N)cnn1-c1nn2c(c1Cl)CCCC2 [Compound 2]" system="Digitaria ciliaris" recorded_result="10 (100%)"

Incoming: Reported herbicidal efficacy (growth inhibition rate level) Digitaria ciliaris, molecule COCCNc1c(C#N)cnn1-c1nn2c(c1Cl)CCCC2 [Control agent 4.63] : ____
Outgoing: 3 (30% to less than 40%)

###

- Tested on: Monochoria vaginalis
- Test Method Notes: Paddy herbicidal activity test
- Format: in vivo
- Assay Context: 5g a.i./10a; irrigated paddy pot; 30 days
Parameter herbicidal efficacy (growth inhibition rate level) Monochoria vaginalis: see the listing below.

compound_string=COCCN(C(=O)C(F)(F)F)c1c([N+](=O)[O-])cnn1-c1nn2c(c1Br)CCCC2 recorded_result="8 (80% to less than 90%)"
compound_string=N#Cc1cnn(-c2nn3c(c2Cl)CCCC3)c1N(CCCCl)C(=O)C(F)(F)F recorded_result="8 (80% to less than 90%)"
compound_string=CCOCCN(C(=O)C(F)(F)F)c1c(C#N)cnn1-c1nn2c(c1Br)CCCC2 recorded_result="8 (80% to less than 90%)"
compound_string=N#Cc1cnn(-c2nn3c(c2Cl)CCCC3)c1N(CCCl)C(=O)C(F)(F)F recorded_result="9 (90% to less than 100%)"

Now for another entry.
Incoming: What value of measured herbicidal efficacy (growth inhibition rate level) Monochoria vaginalis is listed for N#Cc1cnn(-c2nn3c(c2Cl)CCCC3)c1N(CC(F)(F)F)C(=O)C(F)(F)F ?
Outgoing: 9 (90% to less than 100%)
